Assay: gradient 5% acetonitrile 3 min, to 50% in 2 min, to 85% in 15 min, held 3 min, 100 µL/min
Conditions: column: Zorbax Extend-C18 2.1 x 50 mm; eluents: water / acetonitrile, 0.1% formic acid
Outcome Measure: RP-LC retention time (s)

// worked examples, RP-LC retention time included
Molecule | RP-LC retention time, s
CCC1=C[C@@H]2CN3CCc4c([nH]c5ccccc45)[C@@](C(=O)OC)(C2)[C@@H]13 | 728
CCOc1ccc(CC(=O)N2CCCn3nc(-c4cccs4)cc3C2)cc1 | 850

a = O=C1NC(C(=O)N2CCOCC2)Cn2cccc21 (centres undefined)
b = CCOc1cc(C(=O)N2CCCC2c2nc(-c3ccc(C)cc3)no2)cc(OCC)c1OCC (centres undefined)
Problem: Which has the smaller recorded RP-LC retention time, a or b ? Answer by quoting the chosen item's label.
Solution: a

Taken from the METLIN SMRT retention time set (Domingo-Almenara et al. 2019).
